Exercise: state measured soluble fraction (log2) for each of the sequences provided.
- procedure.text: soluble fraction after stress (log2 fold change); higher = more stays soluble; pooled small domains, quantitative proteomics
- applied.conditions: stress: 50 degC
Numbers only.

# count of solved cases: 5
>>> observed_measurement("HMKDRNISSSVLEILSKDPDHTYNYKQIAALLGVKDAFIRKRIVTLLAQLAKDGHLDEISRGKYQIK")
-1.02
>>> observed_measurement("HMGKVNTRNRNEGKFYKNGKKKPANWEYRFEAAPVNGKRQQISDAGYPTEKAAYEAGIAAYEKYNSAGSVN")
0.0482
>>> observed_measurement("HMDYGTATASAILYLEKIDPENPYLLLAKDTITTNPKMSVNFALKGIIESKKGEKEENLNKALEIMSSL")
0.049
>>> observed_measurement("HMYPIYDYISNMYLGKHLNAGMSLEEARGIMDEMLEKLLFDVPEEYHIDRDHFYEYLKKYYTERFSA")
-1.81
>>> observed_measurement("HMAVPAALVQAWLELSRRMVAGTQDVGERFAEEARKMHYGETEDRGIRGQATLTEVRDLLDEGIEVLPLLL")
-0.392

For each of the sequences below, note its soluble fraction (log2).
1. HMYEGNEFSSTGMFREDILAITAVHPMREDAVTELLARSNESEETLEMMIDEELLRRVAYGNHNYYMRRFR
2. HMKIDLKQIEGVLDELAKVKGSLITILQKTQETYGYLPKEAIIYISERTGIAESEIMGVATFYTQFRL
3. HMEKDEYIFVDIDGAVFNPGVYKLIAGSRVIDAINLAGGLKEKAFTQNLNKARKLVDGEKIYIYLEGDEE
4. HMSNYIVELSSSEKIDDIDNNNNLINSFFSKSDSQWEYKLVFKNKNEMDVFVKKISTNNKIISYKTSS
5. HMDDFITLVIHTPAHAQNLRNILESHGMEVRLEDFVSFKSPVAVAQRVKIRPKDLPLALKIIESGE
6. HMYRPLYQQVYDFLVKQIAAGEWGPGESLPSEQALAGRLNVSQGTVRKALDALAADSLIDRRQGKGTYVAE

Completion:
[-0.428, -0.105, -0.585, 0.149, 0.227, -0.0221]

For each of the sequences below, note its soluble fraction (log2).
1. HMLTRSTVNVETGTAAIGLGKLYGVYDMSRKGLKYSFSVDSDAMTKVMEMLLPLGIKSLTVEPPS
2. HMLQKEVHQQIQQALRALPYHQRTAIVLYYYEGMSVKEIAQATGSMQGTVQSRLFFARKKLRPILESILKK

Completion:
1: -1.57; 2: -0.453

* * *

- procedure.text: soluble fraction after stress (log2 fold change); higher = more stays soluble; pooled small domains, quantitative proteomics
- applied.conditions: stress: 50 degC
Exercise: state measured soluble fraction (log2) for each of the sequences provided.
Give bare numbers.

# count of solved cases: 6
>>> observed_measurement("HMDPTVSGQTGSVVREIRPGVPGEVELSVPLYGIRRWQAMADGILAEGTRVTVIQAEGVRLSVRPV")
-0.0839
>>> observed_measurement("HMADRLITLSEVASLLRVSRHTVQAWISPSSPNHRPEFAIMARHAGRRTVFIEAEVTAWLDQRRG")
-1.95
>>> observed_measurement("HMVERQVTVPNLTGLGVADAQRLAQSMELDIEVLGEQESTDARPGAVLQQTPGAGTRAAAGSVVSVLV")
0.0752
>>> observed_measurement("HMSILYNAVKGTLVSSGALTADSWYKISSFGTASALPALKVGSIFKTPEGAGDAITLASGDSVYPLTLT")
-1.26
>>> observed_measurement("HMRRSLIGPTVRERRRALGITQSRLAAEVGISASYLNLIEGDKRNIGGALLQRIAGALGLALD")
-2.74
>>> observed_measurement("HMKDLSMPDVMGSSLNDAKKALTELGIMDITVRYVESGSSEGSIVGMEPPAGSKFAADGKVVLQVSSGS")
0.351

For each of the sequences below, note its soluble fraction (log2).
1. HMQQPVVVQQNQTVRVVTGGPGFQVANEGRALNNGLAGQVVQVRLGNGQIISGIARAGGIVEIL
2. HMTTYTGVVTGSGVNVRSGAGTSYPVVGSKTMGDVVTITETVSADGMIWGKIDIGWISMNYVRM
3. HMEEITLIAEDEGLRLDTWLTDKLKDYSRSYIQKLMEDELVLVNGKARKANYRIKTGDEIHVSIPEPE
4. HMEALNIEQKKVEIINVLLEKGKGKGRLSYKEISDQIDTVELDKDQMDELYETLMTNGIEIV

Completion:
1: 0.0705; 2: -0.75; 3: -0.0342; 4: 0.114

For each of the sequences below, note its soluble fraction (log2).
1. HMDKNLQYADTPKGKLREYIKNLPNGSTVNRQKLAEEFGIKKQSMGTVTEVFQEFPDKNFKFVNP
2. HMLKKGDQVYIISGKDKGKLGVVSQIVSEERILVDGINLAKKHVKPNPNKNETGGVVEKEMPIHASNVMI
3. HMEAKTSNPDYHARLGLTEGEGNDSALGVSVKAAEGGFGLLFGNKVGSDQLVRFANEDQVWLVNRALS
4. HMGAFAIHTASELSAGMRIRHERFGPGVITGIDTANPASGARIQVDFDNGTSKTLLLSYAKFQI
5. HMEKGNEEALEQAREAILAVQSGEKYVDLDPANAAIRRKQHALAQASDLVSQSYGKDPNRYVRIFR
6. HMNNLTEEAINHLVLEVKNVLLTDALFLGKATDSQLMLRIKETIDQRNGQYNIGMNDRERIARRVFARLR
7. HMFSGVQLGQAISEAIKRKNVSQKEVADHFGVKQPSVSGWIKNGRIDKKHLDKLIDYFSDVVTPSHFGIE

Completion:
0.119
-0.0911
0.0188
-0.622
0.34
-0.189
0.246

For each of the sequences below, note its soluble fraction (log2).
1. HMTTGREGLIGAVGTVRQAIAPEGYVFVEGELWRAKSPAGPLEPGTTVRVIAIDGLTLTVMPAE
2. HMSNWTILIIQGSAHLIDLDSKITEIDGFGSFPTKILQDYNLNEEFEIFDTNVKMVNSVQSDLQSN
3. HMDGVSLLFKLMETLPEQQKTILHLRDVEQLEFAEIAKITNTSQANVRVALSRARKKIKDLLLKQY
4. HMSGTESMIEGRGEARTAIDGEGKVFFQGEYWTAQSDQFIPQGAKVRIKKVEGLNLIVEEIK
5. HMSLTPSQDANRSAILDAARDLFARYGFKKTTMEDIAMALRKGKSSLYYYFKNKEDIFQAVIDS
6. HMRLPLYLALAQTLRQEIDAKQYKIGAHLPPEDQLVVKYGVSRHTVRQALQELKNEGLITSKAGIGTIVSS

Completion:
1. -0.348
2. -2.56
3. -2.17
4. 0.0805
5. -1.35
6. -0.666

Prompt: I would be grateful if you could share the reported soluble fraction (log2) for HMDMQNIQKGLSAIEPGRTFSREEYYAAIQNGSEMLLKEDALAYSLRKSLSDGDIVRVSWNQYAIP .
Completion: -0.116
